Target: PARP7 (Homo sapiens (Human), UniProt Q7Z3E1)
Sequence (Q7Z3E1 whole entry): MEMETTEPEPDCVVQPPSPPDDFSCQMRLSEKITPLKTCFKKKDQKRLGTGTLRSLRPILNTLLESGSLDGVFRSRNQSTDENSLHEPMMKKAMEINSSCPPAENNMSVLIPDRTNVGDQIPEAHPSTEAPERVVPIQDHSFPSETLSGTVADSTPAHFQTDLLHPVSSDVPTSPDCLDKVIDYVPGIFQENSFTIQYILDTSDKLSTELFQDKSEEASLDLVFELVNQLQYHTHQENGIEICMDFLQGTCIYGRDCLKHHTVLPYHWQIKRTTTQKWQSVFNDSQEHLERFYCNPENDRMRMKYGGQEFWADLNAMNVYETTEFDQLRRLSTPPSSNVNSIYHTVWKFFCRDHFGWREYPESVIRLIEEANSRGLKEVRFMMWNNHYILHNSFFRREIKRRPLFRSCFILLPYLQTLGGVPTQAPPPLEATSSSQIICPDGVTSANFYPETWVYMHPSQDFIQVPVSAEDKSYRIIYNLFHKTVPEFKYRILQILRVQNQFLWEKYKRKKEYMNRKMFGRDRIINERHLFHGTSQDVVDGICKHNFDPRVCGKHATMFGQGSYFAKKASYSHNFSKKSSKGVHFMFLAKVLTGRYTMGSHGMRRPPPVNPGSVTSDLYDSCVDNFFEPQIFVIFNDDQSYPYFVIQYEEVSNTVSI
Assay: Enzymatic assay for inhibition of PARP7: TR-FRET displacement of biotinylated Probe A from the TIPARP active site
Settings: Table A-1
Recorded Endpoint: IC50

[in] Lookup: IC50 / PARP7 (Homo sapiens (Human), UniProt Q7Z3E1) / COCCOc1cccc2c1CN(c1cn[nH]c(=O)c1Cl)C2 [Example 162]
[out] 100 to 1000 nM

[in] Lookup: IC50 / PARP7 (Homo sapiens (Human), UniProt Q7Z3E1) / N#Cc1ccc(N2CCN(C(=O)CCOCCOc3cn[nH]c(=O)c3C#N)CC2)nc1 [Example 554]
[out] < 100 nM

[in] Lookup: IC50 / PARP7 (Homo sapiens (Human), UniProt Q7Z3E1) / O=c1[nH]ncc(N2Cc3cccc(Oc4cccnc4)c3C2)c1C(F)(F)F [Example 233]
[out] < 100 nM

[in] Lookup: IC50 / PARP7 (Homo sapiens (Human), UniProt Q7Z3E1) / CO[C@H](C)[C@@H](COCCC(=O)N1CCN(c2ncc(C(F)(F)F)cn2)CC1)Nc1cn[nH]c(=O)c1C(F)(F)F [Example 699]
[out] < 100 nM

[in] Lookup: IC50 / PARP7 (Homo sapiens (Human), UniProt Q7Z3E1) / CC1c2ccccc2CN1c1cn[nH]c(=O)c1Cl (stereo not shown) [Example 208]
[out] ≥ 1000 nM

###

Molecular target: PARP7 (Homo sapiens (Human), UniProt Q7Z3E1)
Assay: Enzymatic assay for inhibition of PARP7: TR-FRET displacement of biotinylated Probe A from the TIPARP active site
Details: Table A-1
Recorded Endpoint: IC50

Molecule | Measurement Target | IC50
N#Cc1ccc(N2CCN(C(=O)C[C@H]3CC[C@@H]([C@H]4c5ccccc5CN4c4cn[nH]c(=O)c4C(F)(F)F)O3)CC2)nc1 (single isomer, unassigned) [Example 612 Isomer A] | PARP7 (Homo sapiens (Human), UniProt Q7Z3E1) | < 100 nM
N#Cc1ccc(N2CCN(C(=O)C3CC(OC[C@@H]4CCCN4c4cn[nH]c(=O)c4C(F)(F)F)C3)CC2)nc1 (single isomer, unassigned; isomer a) [Example 95 Isomer A] | PARP7 (Homo sapiens (Human), UniProt Q7Z3E1) | < 100 nM
COC[C@@H](COCCC(=O)N1CCN(c2ncc(C)cn2)CC1)Nc1cn[nH]c(=O)c1C(F)(F)F | PARP7 (Homo sapiens (Human), UniProt Q7Z3E1) | < 100 nM
N#Cc1cccnc1N1CCN(C(=O)c2cccc(OC[C@H]3c4ccccc4CN3c3cn[nH]c(=O)c3C(F)(F)F)c2)CC1 | PARP7 (Homo sapiens (Human), UniProt Q7Z3E1) | ≥ 1000 nM
COC[C@@H](COCCC(=O)N1CCN(c2ncc(C(F)(F)F)cn2)CC1)Nc1cn[nH]c(=O)c1Cl | PARP7 (Homo sapiens (Human), UniProt Q7Z3E1) | < 100 nM

[in] Query: IC50; subject: CC(Nc1cccc2c1CN(c1cn[nH]c(=O)c1C(F)(F)F)C2)c1ccncc1 (stereo not shown)
[out] < 100 nM

[in] Query: IC50; subject: O=C(CCOC[C@@H]1CCCN1c1cn[nH]c(=O)c1C(F)(F)F)NC1CCC(Oc2ccccn2)CC1 (stereo partly shown)
[out] 100 to 1000 nM

[in] Query: IC50; subject: N#Cc1ccc(N2CCN(C(=O)C[C@H]3CC[C@@H](COc4cn[nH]c(=O)c4Cl)O3)CC2)nc1 [Example 582 Isomer C]
[out] ≥ 1000 nM

[in] Query: IC50; subject: CC(=O)N1CCN(C(=O)c2cccc(OC[C@@H]3c4ccccc4CN3c3cn[nH]c(=O)c3C(F)(F)F)c2)CC1
[out] < 100 nM

[in] Query: IC50; subject: N#Cc1ccc(N2CCN(C(=O)c3ccc(OCC4CCN(c5cn[nH]c(=O)c5C(F)(F)F)C4)cc3)CC2)nc1 (stereo not shown)
[out] < 100 nM

###

Biological target: PARP7 (Homo sapiens (Human), UniProt Q7Z3E1)
Experiment: Enzymatic assay for inhibition of PARP7: TR-FRET displacement of biotinylated Probe A from the TIPARP active site
Details: Table A-1
Recorded Endpoint: IC50

Compound | Measurement Target | IC50
N#Cc1ccc(N2CCN(C(=O)C[C@H]3CC[C@H](COc4cn[nH]c(=O)c4C(F)(F)F)O3)CC2)nc1 (single isomer, unassigned) [Example 580 Isomer B] | PARP7 (Homo sapiens (Human), UniProt Q7Z3E1) | 100 to 1000 nM

[in] Query: IC50; subject: O=C(C[C@H]1CC[C@@H](CNc2cn[nH]c(=O)c2C(F)(F)F)O1)N1CCN(c2ncc(C(F)(F)F)cn2)CC1 [Example 568 Isomer C]
[out] < 100 nM

[in] Query: IC50; subject: NCCOc1cnc2c(c1)CN(c1cn[nH]c(=O)c1C(F)(F)F)C2
[out] 100 to 1000 nM
